- measurementProtocol: MT4 cytotoxicity (CC50)
- experimentalParameters: human, MT4 cells, MT4 CC50, Table 4
parameterMeasured: CC50

Looking up `CCCCCCCCCCCCCCCCOC[C@H](COP(=O)(O)OC[C@H]1O[C@@](C#N)(c2ccc3c(N)ncnn23)[C@H](O)[C@@H]1O)OCc1ccc(OC)cc1` , I see its CC50 listed as 652 nM

Looking up `CCCCCCCCCCCCCCCCOC[C@H](COP(=O)(O)OC[C@H]1O[C@@](C#N)(c2ccc3c(N)ncnn23)[C@H](O)[C@@H]1O)OCc1ccc(C#N)cc1` , I see its CC50 listed as 511 nM

Looking up `CCCCCCCCCCCCCCCCCCOC[C@H](COP(=O)(O)OC[C@H]1O[C@@](C#N)(c2ccc3c(N)ncnn23)[C@H](O)[C@@H]1O)Oc1cccc(OC)n1` , I see its CC50 listed as 201 nM

Looking up `CCCCCCCCCCCCCCCCCCCCOC[C@H](COP(=O)(O)OC[C@H]1O[C@@](C#N)(c2ccc3c(N)ncnn23)[C@H](O)[C@@H]1O)OCc1cc(F)cc(C#N)c1` , I see its CC50 listed as 2080 nM

Looking up `CCCCCCCCCCCCCCCCCOCC[C@H](COP(=O)(O)OC[C@H]1O[C@@](C#N)(c2ccc3c(N)ncnn23)[C@H](O)[C@@H]1O)OCc1ccc(C#N)cc1` , I see its CC50 listed as 18900 nM

Looking up `CCCCCCCCCCCCCCCCCCOC[C@H](COP(=O)(O)OC[C@H]1O[C@@](C#N)(c2ccc3c(N)ncnn23)[C@H](O)[C@@H]1O)n1cc(C#N)nn1` , I see its CC50 listed as 31100 nM

Looking up `CCCCCCCC/C=C/CCCCCCCCOC[C@H](COP(=O)(O)OC[C@H]1O[C@@](C#N)(c2ccc3c(N)ncnn23)[C@H](O)[C@@H]1O)OCc1ccccc1` , I see its CC50 listed as 3390 nM
